- experiment-description: Mouse Plasma Conc.
- Format: in vivo
- test-parameters: given as 'Up to'
So I've got a bunch of compounds here, and I need their Mouse Plasma Conc. values.

Q: Name the recorded Mouse Plasma Conc. for CCN(CC)Cc1nc2c(O)c(Cl)cc(Cl)c2c(=O)n1CC [Compound F4386] .
A: ≤ 3294.1 ng/mL

Q: Also, Br.CCn1c(CNC)nc2c(O)c(Cl)cc(Cl)c2c1=O [Compound F4486] please.
A: ≤ 1115 ng/mL

Q: Same read-out for CCNCc1nc2c(O)c(Cl)cc(Cl)c2c(=O)n1CC [Compound F4495] ?
A: ≤ 8935 ng/mL

====

Record form. Attribute: Kp at 1 h. Fill in for each entry.
- experiment-description: Blood Brain Barrier Penetration (brain to plasma ratio)
- Type: in vivo
- test-parameters: male, Swiss Outbred, mouse, brain and plasma, 150 μg/mouse; IV, at 60 min; read-out: Brain to Plasma Ratio (IV) (B:P)
Hey, just send me the number, nothing else.

Q: What value of measured Kp at 1 h is listed for CN(C)Cc1nc2c(O)c(Cl)cc(Cl)c2c(=O)n1CC1CC1 ?
A: 2.02

Q: Please answer likewise for CN(C)Cc1nc2c(O)c(Cl)cc(Cl)c2c(=O)n1C
A: 2.12

Q: Here is the next molecule: CCn1c(CN(C)C)nc2c(O)c(Cl)cc(Cl)c2c1=O.Cl
A: 2.63

Q: Also C#CCN(C)Cc1nc2c(O)c(Cl)cc(Cl)c2c(=O)n1CC1CC1 , if possible.
A: 0.29

====

- Test system: M17 human neuroblastoma cells
- experiment-description: Metal Uptake Assay (metal transport)
- Assay type: cell-based
- test-parameters: 10 μM Cu + 10 μM compound, 5 hours
measure: Metal transport

* CCCn1c(CN(C)C)nc2c(O)c(Cl)cc(Cl)c2c1=O | Metal transport 24%
* CN(Cc1nc2c(O)c(Cl)cc(Cl)c2c(=O)n1CC1CC1)C1CCCCC1 | Metal transport 24%
* CCCN(CCC)Cc1nc2c(O)c(Cl)cc(Cl)c2c(=O)n1C | Metal transport 30%
* CCCNCc1nc2c(O)c(Cl)cc(Cl)c2c(=O)n1CCC | Metal transport 30%

Q: Report Metal transport for CCCn1c(CN(CC)CC)nc2c(O)c(Cl)cc(Cl)c2c1=O please.
A: Metal transport 13%

Q: Cool, now CCCn1c(CNCC)nc2c(O)c(Cl)cc(Cl)c2c1=O
A: Metal transport 14%

Q: // next record CCn1c(CN2CCCCC2)nc2c(O)c(Cl)cc(Cl)c2c1=O
A: Metal transport 22%

Q: Can you check Cn1c(CN2CCCCC2)nc2c(O)c(Cl)cc(Cl)c2c1=O next?
A: Metal transport 8%

Q: What would you report for CCN1CCN(Cc2nc3c(O)c(Cl)cc(Cl)c3c(=O)n2CC2CC2)CC1 ?
A: Metal transport 8%

Q: Could you do the same for CCN(CC)Cc1nc2c(O)c(Cl)cc(Cl)c2c(=O)n1CC1CC1 , please?
A: Metal transport 9%

Q: What about this compound? CCCNCc1nc2c(O)c(Cl)cc(Cl)c2c(=O)n1CC
A: Metal transport 22%

Q: Another: CCN(CC)Cc1nc2c(O)c(Cl)cc(Cl)c2c(=O)n1CC
A: Metal transport 13%

Q: Lookup Br.CCn1c(CNC)nc2c(O)c(Cl)cc(Cl)c2c1=O
A: Metal transport 14%

Q: Now consider CCNCc1nc2c(O)c(Cl)cc(Cl)c2c(=O)n1CC and answer again.
A: Metal transport 8%

Q: For CCN(CC)Cc1nc2c(O)c(Cl)cc(Cl)c2c(=O)n1C then?
A: Metal transport 9%
